Target: T1, Boi1, P38041
T1 sequence (P38041 1-86, looked up): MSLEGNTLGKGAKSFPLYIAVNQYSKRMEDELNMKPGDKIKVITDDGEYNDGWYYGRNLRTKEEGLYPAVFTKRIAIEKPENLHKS
Experiment: SPOT array
Settings: median of control spots 1162
Recorded SPOT intensity by entry
// print number alone

Some binders with known SPOT intensity results, for comparison:
{"columns": ["binder", "SPOT intensity"],
 "data": [
  ["GERSRPLVISILSSA", 2],
  ["QPQRTAPKPPISAPR", 0],
  ["NSMRPPLLIPAATTK", 0],
  ["FYHRPAPKPPVTKKV", 0],
  ["VPVAPPPPPASLGQS", 0],
  ["LTRRFPFLFPFDTRM", 6]
]}

We next turn to a different binder, shown below.
input: Would you mind telling me what SPOT intensity value was observed for VKPRQLFPIPLNKVD ?
output: 0

Every entry's value here was drawn from paper PMC2756588.
